Tested on: HEK293T cells
Assay: In vitro LNP delivery of eGFP mRNA to adherent cells
Type: cell-based
Conditions: 0.125 μg eGFP mRNA per well, 24 hr, flow cytometry, LNP 41.44/45.85/10.0/2.7, lipid:RNA 40:1
// % Viable GFP+ lookup, one value per entry

{"columns": ["molecule", "unit-spec", "% Viable GFP+"],
 "data": [
  ["CC(C)C(CCC1CCC(C(=O)NCCCCCCNC(=O)C2CCC(CCC(SCCN(C)C)C(C)C)C(SCCN(C)C)C2)CC1SCCN(C)C)SCCN(C)C (stereo not shown)", "%", 17.5],
  ["CC(C)C(CCC1CCC(C(=O)NCCCCCCCCCCCCNC(=O)C2CCC(CCC(SCCN(C)C)C(C)C)C(SCCN(C)C)C2)CC1SCCN(C)C)SCCN(C)C (stereo not shown)", "%", 90.1],
  ["CC(C)C(CCC(C)C(CCC1CCC(C(=O)NCCCCCCCCCCCCNC(=O)C2CCC(CCC(SCCN(C)C)C(C)CCC(SCCN(C)C)C(C)C)C(SCCN(C)C)C2)CC1SCCN(C)C)SCCN(C)C)SCCN(C)C (stereo not shown)", "%", 19.4],
  ["CC(C)C(CCC(C)C(CCC1CCC(C(=O)NCCCCCCNC(=O)C2CCC(CCC(SCCN(C)C)C(C)CCC(SCCN(C)C)C(C)C)C(SCCN(C)C)C2)CC1SCCN(C)C)SCCN(C)C)SCCN(C)C (stereo not shown)", "%", 23.5]
]}

====

Reported % Viable GFP+ values are given for each entry in this list.
System: Resting T-cells
Experiment: LNP delivery of nano-pB-EF1a-GFP DNA to resting T-cells
Assay type: cell-based
Conditions: nano-pB-EF1a-GFP DNA LNPs 0.38:0.5:0.1:0.02, lipid:nucleic acid 45:1, 24 hr
property: % Viable GFP+

{"columns": ["compound", "assay-value"],
 "data": [
  ["CC(C)C(CCC1CCC(C(=O)NCCCCCCNC(=O)C2CCC(CCC(SCCN(C)C)C(C)C)C(SCCN(C)C)C2)CC1SCCN(C)C)SCCN(C)C (stereo not shown)", "4.4%"],
  ["CC(C)C(CCC(C)C(CCC1CCC(C(=O)NCCCCCCNC(=O)C2CCC(CCC(SCCN(C)C)C(C)CCC(SCCN(C)C)C(C)C)C(SCCN(C)C)C2)CC1SCCN(C)C)SCCN(C)C)SCCN(C)C (stereo not shown)", "35.2%"],
  ["CC(C)C(CCC1CCC(C(=O)NCCCCCCCCCCCCNC(=O)C2CCC(CCC(SCCN(C)C)C(C)C)C(SCCN(C)C)C2)CC1SCCN(C)C)SCCN(C)C (stereo not shown)", "2.3%"],
  ["CC(C)C(CCC(C)C(CCC1CCC(C(=O)NCCCCCCCCCCCCNC(=O)C2CCC(CCC(SCCN(C)C)C(C)CCC(SCCN(C)C)C(C)C)C(SCCN(C)C)C2)CC1SCCN(C)C)SCCN(C)C)SCCN(C)C (stereo not shown)", "18.0%"]
]}
